What apparent KD of MS2 coat protein was measured for each of the following?
# Test system: MS2 coat protein
# Test: apparent KD of MS2 coat protein; designed switch direction (-1 OFF switch, 1 ON switch): -1; higher = weaker reporter binding
# Stated Conditions: Eterna round: R95; input ligand: none
Write down the value, and be sure its unit follows.

Q: State measured apparent KD of MS2 coat protein of the sequence ACCUCACAUGAGGAUCACCCAUGUCAGGAUAUGUACCUAGCCAAAACAAAGGCCAGAAGCAGAAGGGACUGCGG [Ralerezara] (puzzle: Exclusion 1) with MS2 coat protein.
A: 44.6 nM

Q: State measured apparent KD of MS2 coat protein of the sequence UUUAAUUUUUUUUUUUUACAAGCUUUUUGCUCGUCUUAUACAUGAGGAUCACCCAUGUGGGUGGAGGGUAAAUUAUC [JMF 89] (puzzle: Sensor v3, turn-off variant 2) with MS2 coat protein.
A: 67 nM

Q: State measured apparent KD of MS2 coat protein of the sequence CUGAGGUAGCGGUCCUAUGACAUGAGGAUCACCCAUGUGCCUUGCUACAAGCUUUUUGCUCGUUUUAUGAUUCUCGG [JL Atriat mod 10] (puzzle: Sensor v3, turn-off variant 1) with MS2 coat protein.
A: 83.5 nM

Q: State measured apparent KD of MS2 coat protein of the sequence ACCCAACAUGAGGAUCACCCAUGUCAGGAUAUCCUCGGGAAACCAAAAGAGGAGCCGAGGAGAAGGGACAGAGG [ChP 04-04-2015 #5] (puzzle: Exclusion 1) with MS2 coat protein.
A: 227 nM

Q: State measured apparent KD of MS2 coat protein of the sequence ACAAGCUUUUUGUUCGUCUUAUACACUCCUAAUAGGACAACAUGAGGAUCACCCAUGUAACAAAGACGAACUCAUGU [Sesor Array 9 - Jieux - Sensor v3, turn-off variant 2] (puzzle: Sensor v3, turn-off variant 2) with MS2 coat protein.
A: 9.63 nM

Q: State measured apparent KD of MS2 coat protein of the sequence AAAAAGAGAGGAUAUACAUGAGGAUCACCCAUGUGAGGGCACCGCGGGCGCGGGACCCGUAGAAGGCUCAAAAA [Exc;s3-I] (puzzle: Exclusion 3) with MS2 coat protein.
A: 20.5 nM

Q: State measured apparent KD of MS2 coat protein of the sequence AAUACUAACAGCUGACUGUUAGUACUGUAGGUUUGUGUUACAUGAGGAUCACCCAUGUCCUCAUAGGCUCGUCUUGU [Mat - Sensor v3 - Turn-off var 2 - D98] (puzzle: Sensor v3, turn-off variant 2) with MS2 coat protein.
A: 697 nM

Q: State measured apparent KD of MS2 coat protein of the sequence GAAGAGACAGGAUAUACAUGAGGAUCACCCAUGUGAGUAUGUUGGAGGCGGAGGAGAUGUAGAAGGGUCAAAGA [JR_Exclu3_Sub018] (puzzle: Exclusion 3) with MS2 coat protein.
A: 29.7 nM

Q: State measured apparent KD of MS2 coat protein of the sequence AAGAAACAUGAGGAUCACCCAUGUGAGGAUAUGUAAAAUAAAAGAAAAGAAAUAAUAAACAGAAGGCACAAAGG [Mat - Mod of Hog D15] (puzzle: Exclusion 1) with MS2 coat protein.
A: 41.4 nM

Q: State measured apparent KD of MS2 coat protein of the sequence AAUGUCUGAGGAUAUCGAUUAGUGUACAUGAGGAUCACCCAUGUUUUUAUUUGUAUAUUACGAGAAGGCAGUGGAA [JR_E5_Sub087] (puzzle: Exclusion 5) with MS2 coat protein.
A: 17.2 nM
